# target.or.system: T1, human CD26-derived 13 mer peptide 24 (human)
# T1 peptide: TFDEFGHSINDYS
# protocol.text: peptide microarray
quantity.measured: Mean Signal Value
The reply should be a number, written without any unit.

binder	Mean Signal Value
rhuMAb 420 (antibody, human IgG1, V domains shown, X420 VH and X380 VL with human IgG1 and human kappa constant regions; also called X420 (IgG1)) VH: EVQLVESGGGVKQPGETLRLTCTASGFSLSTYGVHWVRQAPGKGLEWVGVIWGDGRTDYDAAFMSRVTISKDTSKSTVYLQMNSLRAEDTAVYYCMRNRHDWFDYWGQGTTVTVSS VL: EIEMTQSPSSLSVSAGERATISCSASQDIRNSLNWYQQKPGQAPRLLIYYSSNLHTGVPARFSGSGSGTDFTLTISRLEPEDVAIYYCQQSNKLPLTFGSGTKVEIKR	0
rhuMAb 409 (antibody, human IgG1, V domains shown, CM03 VH and VL with human IgG1 heavy chain constant region and human kappa constant region; also called X409) VH: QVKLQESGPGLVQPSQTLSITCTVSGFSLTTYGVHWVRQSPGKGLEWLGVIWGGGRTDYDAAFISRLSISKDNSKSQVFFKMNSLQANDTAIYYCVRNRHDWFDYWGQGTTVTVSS VL: DIQMTQSPSSLSASLGDRVTITCSASQGIRNSLNWYQQKPDGAVKLLIYYSSNLHSGVPSRFSGSGSGTDFSLTISNLEPEDIATYYCQQSIKLPFTFGSGTKLEIKR	0

Turning to the following binder.
Entry under test: rhuMAb 411 (antibody, human IgG1, kappa, V domains shown, also called X411) VH: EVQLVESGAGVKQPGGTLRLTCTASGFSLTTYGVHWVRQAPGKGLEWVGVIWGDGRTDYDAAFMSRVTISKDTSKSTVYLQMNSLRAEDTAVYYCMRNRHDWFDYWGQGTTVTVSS VL: DILLTQSPSSLSATPGERATITCRASQGIRNNLNWYQQKPGQAPRLLIYYSSNLQSGVPSRFSGSGSGTDFTLTISRLQPEDVAAYYCQQSIKLPFTFGSGTKVEIKR . Its Mean Signal Value was 0.00962

Recorded values, source patent US20070105771A1.
